target-or-test-system: Sodium channel protein type 4 subunit alpha (Homo sapiens, UniProt P35499)
Sequence (P35499 whole entry): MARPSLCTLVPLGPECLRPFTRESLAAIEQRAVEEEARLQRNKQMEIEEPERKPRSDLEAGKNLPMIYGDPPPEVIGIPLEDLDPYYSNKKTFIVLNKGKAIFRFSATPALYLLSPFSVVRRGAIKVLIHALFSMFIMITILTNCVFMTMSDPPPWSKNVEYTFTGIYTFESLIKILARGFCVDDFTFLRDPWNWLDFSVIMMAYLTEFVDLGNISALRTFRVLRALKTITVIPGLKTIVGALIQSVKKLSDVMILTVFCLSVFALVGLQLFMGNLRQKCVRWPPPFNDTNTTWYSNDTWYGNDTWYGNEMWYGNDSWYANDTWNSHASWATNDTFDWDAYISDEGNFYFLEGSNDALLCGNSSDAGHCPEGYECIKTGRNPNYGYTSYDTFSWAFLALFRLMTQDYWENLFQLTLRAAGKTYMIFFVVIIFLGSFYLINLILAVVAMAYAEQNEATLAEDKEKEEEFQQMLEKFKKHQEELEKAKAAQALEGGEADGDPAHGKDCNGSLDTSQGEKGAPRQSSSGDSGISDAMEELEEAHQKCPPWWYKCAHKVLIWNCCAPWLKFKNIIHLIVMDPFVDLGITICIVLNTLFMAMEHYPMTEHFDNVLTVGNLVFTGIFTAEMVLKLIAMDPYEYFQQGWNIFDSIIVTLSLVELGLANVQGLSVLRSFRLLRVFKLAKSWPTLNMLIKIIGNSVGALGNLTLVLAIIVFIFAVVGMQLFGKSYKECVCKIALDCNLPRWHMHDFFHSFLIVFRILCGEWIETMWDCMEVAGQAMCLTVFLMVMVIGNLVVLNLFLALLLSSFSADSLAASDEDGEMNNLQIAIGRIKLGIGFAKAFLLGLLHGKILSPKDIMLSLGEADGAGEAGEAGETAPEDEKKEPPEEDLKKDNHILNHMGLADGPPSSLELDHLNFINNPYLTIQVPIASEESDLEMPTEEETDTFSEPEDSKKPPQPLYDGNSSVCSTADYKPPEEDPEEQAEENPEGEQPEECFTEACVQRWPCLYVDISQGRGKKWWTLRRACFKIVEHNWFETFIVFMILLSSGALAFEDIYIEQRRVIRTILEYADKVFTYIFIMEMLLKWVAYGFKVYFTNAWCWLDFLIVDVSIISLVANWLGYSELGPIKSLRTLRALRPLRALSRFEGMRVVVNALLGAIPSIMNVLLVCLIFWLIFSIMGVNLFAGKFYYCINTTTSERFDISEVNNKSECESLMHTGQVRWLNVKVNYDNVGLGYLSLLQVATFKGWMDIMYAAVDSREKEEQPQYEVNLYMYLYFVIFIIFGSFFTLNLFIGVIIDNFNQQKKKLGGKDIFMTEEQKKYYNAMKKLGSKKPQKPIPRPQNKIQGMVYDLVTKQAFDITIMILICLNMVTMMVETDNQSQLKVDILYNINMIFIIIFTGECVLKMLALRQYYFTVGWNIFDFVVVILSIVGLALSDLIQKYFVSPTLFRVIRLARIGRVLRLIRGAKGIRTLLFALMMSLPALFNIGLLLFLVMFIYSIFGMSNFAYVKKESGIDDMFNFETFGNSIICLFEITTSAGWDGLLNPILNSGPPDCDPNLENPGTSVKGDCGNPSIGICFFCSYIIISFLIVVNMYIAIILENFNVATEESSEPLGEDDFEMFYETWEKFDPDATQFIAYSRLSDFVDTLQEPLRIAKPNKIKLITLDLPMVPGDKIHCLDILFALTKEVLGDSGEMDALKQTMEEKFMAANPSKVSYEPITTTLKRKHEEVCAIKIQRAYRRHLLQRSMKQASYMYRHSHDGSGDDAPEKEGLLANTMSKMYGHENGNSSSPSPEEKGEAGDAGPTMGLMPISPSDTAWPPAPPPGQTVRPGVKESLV
assay-overview: Modulation of human Nav1.4 in open-inactivated state assessed as inhibition of inward current after 4 mins by whole-cell electrophysiology
Recorded measurements of IC50, one per entry

# structure-string, target-or-test-system, IC50
rows = [
    ("Nc1nc(-c2ccc(NC(=O)c3ccc[nH]3)cc2)c[nH]1", "Sodium channel protein type 4 subunit alpha (Homo sapiens, UniProt P35499)", "> 30 µM"),
    ("CNc1nc(-c2cccc(NC(=O)c3ccco3)c2)cn1C(=O)OC(C)(C)C", "Sodium channel protein type 4 subunit alpha (Homo sapiens, UniProt P35499)", "> 30 µM"),
    ("Nc1nc(-c2cccc(NC(=O)c3c[nH]c4ccccc34)c2)c[nH]1", "Sodium channel protein type 4 subunit alpha (Homo sapiens, UniProt P35499)", "14 µM"),
    ("CC(C)(C)OC(=O)n1cc(-c2cccc(NC(=O)c3c[nH]c4ccccc34)c2)nc1N", "Sodium channel protein type 4 subunit alpha (Homo sapiens, UniProt P35499)", "26 µM"),
]

**Q:** Identify IC50 associated with the compound `Nc1nc(-c2ccc(NC(=O)[C@@H]3CCCN3)cc2)c[nH]1`
**A:** > 30 µM

**Q:** Give the measured IC50 for `CNc1nc(-c2cccc(NC(=O)c3cc4ccccc4[nH]3)c2)c[nH]1`
**A:** > 30 µM

**Q:** Provide only the value of recorded IC50 for `Nc1nc(-c2cccc(NC(=O)c3ccc[nH]3)c2)c[nH]1`
**A:** > 30 µM

**Q:** Supply IC50 value. Item: `CNc1nc(-c2cccc(NC(=O)c3cc4ccccc4[nH]3)c2)cn1C(=O)OC(C)(C)C`
**A:** > 30 µM

**Q:** Identify IC50 associated with the compound `CC(C)(C)OC(=O)n1cc(-c2cccc(NC(=O)c3cc[nH]c3)c2)nc1N`
**A:** > 30 µM

**Q:** // fetch IC50 given entry `CC(C)(C)OC(=O)n1cc(-c2ccc(NC(=O)c3ccco3)cc2)nc1N`
**A:** > 30 µM

**Q:** Specify reported IC50 for the compound shown: `CC(C)(C)OC(=O)n1cc(-c2cccc(NC(=O)[C@H]3CCCN3)c2)nc1N`
**A:** > 30 µM

* * *

target-or-test-system: Sodium channel protein type 9 subunit alpha (Homo sapiens)
assay-overview: Modulation of human Nav1.7 in open-inactivated state assessed as inhibition of inward current after 4 mins by whole-cell electrophysiology
pIC50: −log10 of the molar value.
quantity-kind: pIC50

**Q:** Identify measured pIC50 obtained with Sodium channel protein type 9 subunit alpha (Homo sapiens) for `CC(C)(C)OC(=O)n1cc(-c2ccc(NC(=O)[C@H]3CCCN3)cc2)nc1N` .
**A:** < 4.52

* * *

Listing of entries alongside the reported IC50.
target-or-test-system: Sodium channel protein type 3 subunit alpha (Homo sapiens, UniProt Q9NY46)
Sequence (Q9NY46 whole entry): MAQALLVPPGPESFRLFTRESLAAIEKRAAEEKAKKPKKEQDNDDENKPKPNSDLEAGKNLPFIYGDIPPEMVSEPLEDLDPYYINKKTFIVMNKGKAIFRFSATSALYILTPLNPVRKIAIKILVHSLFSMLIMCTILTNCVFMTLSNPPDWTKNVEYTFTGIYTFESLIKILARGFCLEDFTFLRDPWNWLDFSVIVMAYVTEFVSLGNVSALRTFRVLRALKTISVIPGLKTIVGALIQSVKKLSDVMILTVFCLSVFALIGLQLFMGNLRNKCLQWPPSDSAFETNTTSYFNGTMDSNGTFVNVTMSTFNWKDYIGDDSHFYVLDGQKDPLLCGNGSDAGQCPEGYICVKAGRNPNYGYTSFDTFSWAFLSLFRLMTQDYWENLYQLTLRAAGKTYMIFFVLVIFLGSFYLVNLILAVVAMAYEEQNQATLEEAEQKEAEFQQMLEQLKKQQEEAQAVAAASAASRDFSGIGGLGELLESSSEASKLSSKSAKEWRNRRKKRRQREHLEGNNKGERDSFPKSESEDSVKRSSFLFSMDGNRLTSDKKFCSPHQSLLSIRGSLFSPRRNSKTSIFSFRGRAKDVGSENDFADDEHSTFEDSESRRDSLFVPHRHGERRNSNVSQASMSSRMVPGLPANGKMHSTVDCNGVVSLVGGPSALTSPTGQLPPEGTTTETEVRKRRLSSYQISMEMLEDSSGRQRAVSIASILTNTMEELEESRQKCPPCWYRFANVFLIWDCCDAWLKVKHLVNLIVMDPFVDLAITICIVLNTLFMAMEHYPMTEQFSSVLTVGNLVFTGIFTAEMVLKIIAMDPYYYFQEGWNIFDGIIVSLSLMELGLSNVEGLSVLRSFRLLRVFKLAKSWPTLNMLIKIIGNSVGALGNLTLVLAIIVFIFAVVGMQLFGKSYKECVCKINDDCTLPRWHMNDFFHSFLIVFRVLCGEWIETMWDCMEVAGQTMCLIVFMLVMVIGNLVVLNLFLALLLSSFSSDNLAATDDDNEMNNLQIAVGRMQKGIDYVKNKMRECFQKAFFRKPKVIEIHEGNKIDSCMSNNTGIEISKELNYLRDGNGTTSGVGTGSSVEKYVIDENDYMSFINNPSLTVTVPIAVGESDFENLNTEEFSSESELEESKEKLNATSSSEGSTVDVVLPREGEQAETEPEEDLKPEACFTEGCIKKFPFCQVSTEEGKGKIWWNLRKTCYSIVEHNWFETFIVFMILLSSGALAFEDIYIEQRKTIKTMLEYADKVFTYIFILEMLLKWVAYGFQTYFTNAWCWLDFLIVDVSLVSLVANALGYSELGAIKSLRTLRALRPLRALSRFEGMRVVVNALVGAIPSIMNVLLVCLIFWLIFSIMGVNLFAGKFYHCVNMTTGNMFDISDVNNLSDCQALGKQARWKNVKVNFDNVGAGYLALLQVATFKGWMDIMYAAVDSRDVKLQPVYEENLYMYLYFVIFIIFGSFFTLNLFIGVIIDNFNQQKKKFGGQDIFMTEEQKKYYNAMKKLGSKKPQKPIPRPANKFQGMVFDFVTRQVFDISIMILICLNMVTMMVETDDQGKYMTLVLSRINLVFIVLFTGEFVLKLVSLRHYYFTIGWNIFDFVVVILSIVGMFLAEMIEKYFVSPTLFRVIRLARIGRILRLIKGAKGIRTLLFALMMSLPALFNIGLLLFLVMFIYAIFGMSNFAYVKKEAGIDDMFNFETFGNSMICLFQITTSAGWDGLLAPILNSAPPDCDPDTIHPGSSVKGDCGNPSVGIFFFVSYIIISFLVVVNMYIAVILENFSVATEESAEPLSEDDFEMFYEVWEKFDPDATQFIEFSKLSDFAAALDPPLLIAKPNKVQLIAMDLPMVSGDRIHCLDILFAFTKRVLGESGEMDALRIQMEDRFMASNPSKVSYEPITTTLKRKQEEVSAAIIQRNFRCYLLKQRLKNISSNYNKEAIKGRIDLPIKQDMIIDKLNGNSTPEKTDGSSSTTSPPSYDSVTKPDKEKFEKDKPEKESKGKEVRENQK
assay-overview: Modulation of human Nav1.3 in open-inactivated state assessed as inhibition of inward current after 4 mins by whole-cell electrophysiology

Reference set (3 entries):
# structure-string, value-measured
data = [
    ("Nc1nc(-c2ccc(NC(=O)c3cc4ccccc4[nH]3)cc2)c[nH]1", "> 30 µM"),
    ("CNc1nc(-c2cccc(NC(=O)c3cc4ccccc4[nH]3)c2)c[nH]1", "> 30 µM"),
    ("Nc1nc(-c2cccc(NC(=O)c3cc4ccccc4[nH]3)c2)c[nH]1", "> 30 µM"),
]

**Q:** Answer with the recorded IC50 of `Nc1nc(-c2ccc(NC(=O)c3ccc[nH]3)cc2)c[nH]1` only.
**A:** > 30 µM

**Q:** Item `CC(C)(C)OC(=O)n1cc(-c2cccc(NC(=O)[C@H]3CCCN3)c2)nc1N` : provide IC50
**A:** > 30 µM
